# credit: ChEMBL document CHEMBL1132694

Target: Protein farnesyltransferase (Homo sapiens, UniProt P49354+P49356)
Experiment: Phenotypic reversion of H-Ras transformed NIH3T3 cells by the compound at a concentration of 10 uM
Format: functional, cell-based
Settings: Mus musculus
MEASUREMENT_KIND: Reversion activity

Example results:
• O=C(c1ccccc1-c1ccccc1)N1CCN(Cc2c[nH]cn2)c2ccccc2C1 = 25%
• O=C(c1cccc2ccccc12)N1CCN(CCc2c[nH]cn2)c2ccccc2C1 = 20%
• O=C(c1cccc2ccccc12)N1CCN(Cc2c[nH]cn2)c2ccccc2C1 = 0%

In: Data request, read-out Reversion activity, for O=C(c1cccc2ccccc12)N1CCN(Cc2c[nH]cn2)Cc2ccccc21
Out: 0%
